Reference source for all entries: PubChem BioAssay

assay.remarks: basal RPMI8226 mitochondrial membrane potential changes, profiling panel, cell-based, JC-1 fluorescence, 24 h, 100 nL compound (AID 1169); note: test concentration not given here
assay.conditions: RPMI8226 myeloma, JC-1 mitochondrial potential fluorescence, higher = more signal
Decide by z-score: equal to or exceeding -0.07 means YES, less means NO.

O=C/C=C/c1ccc(/C=C/c2ccccc2)cc1 ... NO
CC[C@H]1C2=C3C(CC[C@H]4C(OC)OC[C@](C)([C@@H]34)N(C(=O)OC(C)(C)C)C2)C(CO)C1CO (stereo partly drawn) ... NO
O=C1C[C@@](C(=O)NCCN2CCOCC2)(c2ccc([N+](=O)[O-])cc2)[C@@H](c2ccc(CO)cc2)N1C1CCCCC1 ... YES
CCN1C(C)=C(C(=O)OC)[C@@H](c2ccccc2)N2C(=O)[C@@]3(C(=O)OC)O[C@@]12[C@@H]1C(=O)CCC[C@@H]13 ... YES
CCN1C(C)=C(C(=O)OC)[C@@H](c2ccccc2)N2C(=O)[C@](O)(C(=O)OC)[C@@H](c3ccccc3)C(C(=O)c3ccccc3)=C12 ... NO
C=CC[C@]1(C(=O)O)N=C(c2ccc(OCCCO)cc2)O[C@H]1c1ccccc1 ... NO
C=C(/C(=C/C[C@@H](OC(=O)c1ccncc1)c1ccc(CO)o1)c1cnc2ccccc2c1)C(C)C ... YES

Check if z-score >= -0.07 (inclusive). Item: C[N+](C)(C)CCCCNC(=O)[C@H]1C[C@H]2C(=O)NCC(=O)N2[C@H]1c1cccc(OCCO)c1
NO

----------
test.system: Torsin-1A (Homo sapiens) (UniProt O14656)
Sequence (O14656 whole entry, looked up): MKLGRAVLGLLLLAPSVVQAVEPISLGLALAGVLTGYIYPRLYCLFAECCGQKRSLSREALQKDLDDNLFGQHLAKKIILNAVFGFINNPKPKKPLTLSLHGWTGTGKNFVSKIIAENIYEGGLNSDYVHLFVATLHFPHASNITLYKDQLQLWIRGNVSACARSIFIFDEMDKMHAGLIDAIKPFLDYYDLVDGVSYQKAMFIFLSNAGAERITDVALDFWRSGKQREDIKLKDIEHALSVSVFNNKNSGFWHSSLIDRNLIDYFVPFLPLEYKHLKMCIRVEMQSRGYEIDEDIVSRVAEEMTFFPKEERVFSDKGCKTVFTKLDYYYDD
assay.remarks: torsin A binders from cell lysate, primary screen, small-molecule microarray, wild-type, 635/667 nm (AID 1149)
assay.conditions: COS7 hTOR1A-WT lysate, 635 nm fluorescence, higher = more signal
Decide by composite z-score: equal to or exceeding 0.8 means 1, less means 0.

CO[C@H]1COC(=O)[C@@H](C)NC(=O)CC=C[C@@H](C)[C@H](OC)COC(=O)CC=C[C@@H]1C ... 1
C[C@@H]1CC[C@H]2C(=O)N3CCC[C@H]3C(=O)N2[C@H]1c1ccc(Br)cc1 ... 0
CN1CCC(CCCO)=CC1C1CC1 (stereo unspecified) ... 0
CN1C(=O)C2C=CC(C(O)c3ccc(N(C)C)cc3)N(Nc3ccc([N+](=O)[O-])cc3[N+](=O)[O-])C2C1=O (stereo unspecified) ... 1

Okay, next one:
Check if composite z-score >= 0.8 (inclusive). Item: Cc1ccc(S[C@]2(C(=O)NC(C)C)CC(=O)N(C3Cc4ccccc4C3)[C@@H]2c2ccc(CO)cc2)cc1
1

----------
assay.remarks: E. coli acrAB mutant growth effects, primary screen, E. coli filamentation inducers, strain DRC39, OD650, 48 h (AID 1179);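 note: screen aims at cell division blockers that make cells filament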
assay.conditions: E. coli DRC39 delta-acrAB growth, higher = more signal, called active from +8 up or from −8 down
Listing: z-score of selected molecules
Keep the answer to the number alone.

C=CCC(OC(C)=O)[C@@H]1[C@@H](N(Cc2cc3ccccc3o2)C(=O)c2ccc(C)cc2)c2cc(OCCCO)ccc2N1C(=O)c1ccc2ccccc2n1 (stereo partly drawn) ... 1.42
C=CCC(OC(C)=O)[C@@H]1[C@@H](N(Cc2cccc3ccccc23)C(=O)Cc2ccc(F)cc2)c2cc(OCCCO)ccc2N1C(=O)Cc1ccc2ccccc2c1 (stereo partly drawn) ... 0.4
COc1cccc([C@@H]2[C@@H](C)CC[C@H]3C(=O)N4[C@H](c5cccc(OC)c5)[C@@H](C)CC[C@H]4C(=O)N23)c1 ... -1.17

Item: Cc1ccc(S[C@]2(C(=O)NC(C)C)CC(=O)N(C3Cc4ccccc4C3)[C@@H]2c2ccc(CO)cc2)cc1 | z-score: -0.768
